Reference for the values: the supplement of paper PMC11865577

- Test system: TO-3-N3-2 (biotin conjugate)
- measurementProtocol: pull-down binding Z-score (relative to library population); higher = stronger binding
- testSettings: RNA library: Library-2
Exercise: for every item that follows, state its recorded pull-down binding Z-score.
Please reply with the number alone, leaving off any unit.

What does the record list as pull-down binding Z-score for GCUAUGGGUAUUAUUGCUAUGUCUGCUUUUGCAAUGAUGUUUGUCAAACAUAAGCAUGCAUUUCUCUGUUUGUUUUUGUUACCUUCUCUUGCCACUGUAGC ?
-0.526

What does the record list as pull-down binding Z-score for CCUAAACGAACAUGAAAUUUCUUGUUUUCUUAGG ?
-0.593

What does the record list as pull-down binding Z-score for GUUGUUGUCUUACUGCGCUCAACAAC [hsa-mir-7-2] ?
-0.285

What does the record list as pull-down binding Z-score for UCAAGACUAUUCAACCAAGGGUUGAAAAGAAAAAGCUUGA [SHAPE_invivo_SARS-CoV-2_Motif_22] ?
-0.14

What does the record list as pull-down binding Z-score for UCAGUUGUAAACAUUCAAAAAGAAAUUGA ?
0.407

What does the record list as pull-down binding Z-score for CUUUUGUUCAAAUAAAAAUGCAAAAG [hsa-mir-651] ?
-0.367

What does the record list as pull-down binding Z-score for CGGACGUUGCUCUCUACCCCG [hsa-mir-1247] ?
0.262

What does the record list as pull-down binding Z-score for GGCAGGGUCCUCCAGCUCAUUCCUCCUGCC [hsa-mir-6829] ?
0.56

What does the record list as pull-down binding Z-score for GGCCGCAAAUUGCACAAUUUGCCCCC [SHAPE_invivo_SARS-CoV-2_Motif_557] ?
-0.187

What does the record list as pull-down binding Z-score for CUUUGUCAUUAAAACCAAUAACAAAA [hsa-mir-548ap] ?
0.223

###

- System: TO-3-N3 (biotin conjugate)
- measurementProtocol: pull-down binding Z-score (relative to library population); higher = stronger binding
- testSettings: RNA library: Library-2
attributeMeasured: pull-down binding Z-score
Please reply with the number alone, leaving off any unit.

What does the record list as pull-down binding Z-score for UGCACCAGUUCUGGCCGCUGGUGGA [hsa-mir-4683] ?
-0.16

What does the record list as pull-down binding Z-score for AGCUUCUACGUCAUUCAGCACUUGCU [hsa-mir-5706] ?
-0.62

What does the record list as pull-down binding Z-score for CCCAAUCAUGAAGGG [IAV_invivo_PB1_2_Motif_24+IAV_invivo_PB1_2_Motif_24] ?
-0.131

What does the record list as pull-down binding Z-score for GCUAUGGGUAUUAUUGCUAUGUCUGCUUUUGCAAUGAUGUUUGUCAAACAUAAGCAUGCAUUUCUCUGUUUGUUUUUGUUACCUUCUCUUGCCACUGUAGC ?
-0.966

What does the record list as pull-down binding Z-score for GUACCUCAAGCUGAUGUAGAAUGGAAGUUCUAUGAUGCACAGCCUUGUAGUGAC [SHAPE_invitro_SARS-CoV-2_Motif_348] ?
-0.418

What does the record list as pull-down binding Z-score for CCUUCCAAUACCUGUAAGCAGAAGG [hsa-mir-3158-2] ?
0.0988

What does the record list as pull-down binding Z-score for AGAAUUACUUAUCUGAGCCAAAGUAAUUCA [hsa-mir-1297] ?
0.332

What does the record list as pull-down binding Z-score for GUCUCUAUAGAAAUAGAGAU ?
0.213

What does the record list as pull-down binding Z-score for GAUGCUGUAUAUCUGAAAGGUAC [hsa-mir-101-2] ?
-0.357

What does the record list as pull-down binding Z-score for AAAGGACUGGUAUGAUUUUGUAGAAAACCCAGAUAUAUUACGCGUAUACGCCAACUUAGGUGAACGUGUACGCCAAGCUUU ?
-0.541

What does the record list as pull-down binding Z-score for UGGUCAGAUAUCCCAU [hsa-mir-8060] ?
-0.323

What does the record list as pull-down binding Z-score for CUGUGGUCUAACCUUUCCCAUCU [hsa-mir-6828] ?
-0.163

What does the record list as pull-down binding Z-score for GGCUUCAUCAAACAAUAUGGUGAUUGCC ?
-0.151

What does the record list as pull-down binding Z-score for GACUCAUUCAAGGAGGAGUU [SHAPE_invivo_SARS-CoV-2_Motif_469] ?
0.25

What does the record list as pull-down binding Z-score for CCAUAAUGAAUCUGG [DMSMaPseq_invitro_SARS-CoV-2_Motif_27] ?
-0.322

What does the record list as pull-down binding Z-score for GGUUCUCAGUCAGAACC [hsa-mir-6813] ?
-0.0211

What does the record list as pull-down binding Z-score for UUAACCUAAAAUGAGAAGGCUAA [hsa-mir-633] ?
-0.0885

What does the record list as pull-down binding Z-score for AGAGCACCUCCUAGAGAAUGUUGAACUAAAGGUGCCC [hsa-mir-4723] ?
0.573

What does the record list as pull-down binding Z-score for AACUUUAAUGUU [SHAPE_invitro_SARS-CoV-2_Motif_263] ?
0.212

What does the record list as pull-down binding Z-score for UGAGCAUUUUUACUGAAUUGCCA [hsa-mir-6715a] ?
-0.582

What does the record list as pull-down binding Z-score for UUUGCCAGAGCUACAAAGGCAAA [hsa-mir-561] ?
-0.527

###

Exercise: for every item that follows, state its recorded pull-down binding Z-score.
- Tested on: TO-3-N3-2 (biotin conjugate)
- measurementProtocol: pull-down binding Z-score (relative to library population); higher = stronger binding
- testSettings: RNA library: Library-2

What does the record list as pull-down binding Z-score for UUAUCUGUCACCAGUCAGAUAACUGUCACCAGUCAGUUAA [hsa-mir-4764] ?
-0.324

What does the record list as pull-down binding Z-score for GGCCUGGGCCUGGGCCUGGGCCUGGGCCUGGGCCUG [r(GGCCUG)6] ?
-0.435

What does the record list as pull-down binding Z-score for CCUGCCCAAAUGGUGGAGCAGAUUCGAGGGGCAGG [hsa-mir-4436b-2_4436b-1] ?
0.0731

What does the record list as pull-down binding Z-score for AGAACAUUCGUUCACUUUCCU [hsa-mir-6747] ?
-0.29

What does the record list as pull-down binding Z-score for CUGCCCCUCGAAUCUGCUCCACGAUUUGGGCAG [hsa-mir-4436a] ?
-0.181

What does the record list as pull-down binding Z-score for CUAGGUUUUUCUAUGUACUUGG ?
0.313

###

- Tested on: TO-3-N3-2 (biotin conjugate)
- measurementProtocol: pull-down binding Z-score (relative to library population); higher = stronger binding
- testSettings: RNA library: Library-2
attributeMeasured: pull-down binding Z-score

What does the record list as pull-down binding Z-score for GGGACGUGUGAUGCUGUGCUUCCU [hsa-mir-3689f] ?
-0.0333

What does the record list as pull-down binding Z-score for ACAUUACACCAUGU [SHAPE_invivo_SARS-CoV-2_Motif_439] ?
-0.6

What does the record list as pull-down binding Z-score for UUUCUGUUGUCUGAAAGAAAAGAAC [hsa-mir-523] ?
0.0657

What does the record list as pull-down binding Z-score for UUGAUGUCAGAAUGAGGUGUACCAA [hsa-mir-4714] ?
0.1

What does the record list as pull-down binding Z-score for GCUUCUAGAAAGUGAACUCGUAAUCGGAGCUGUGAUCCUUCGUGGACAUCUUCGUAUUGCUGGACACCAUCUAGGACGC ?
0.191

What does the record list as pull-down binding Z-score for UCCGGCCGGCCAUGCUGGCGGGG [hsa-mir-762] ?
-0.506

###

- Test system: TO-3-N3-2 (biotin conjugate)
- measurementProtocol: pull-down binding Z-score (relative to library population); higher = stronger binding
- testSettings: RNA library: Library-2
attributeMeasured: pull-down binding Z-score
Please reply with the number alone, leaving off any unit.

What does the record list as pull-down binding Z-score for GACAUCACUUUCUUAAAGAAAGAUGCUCCAUAUAUAGUGGGUGAUGUU [DMSMaPseq_invitro_SARS-CoV-2_Multi_15_ComplexLevel_1] ?
-0.0858

What does the record list as pull-down binding Z-score for AAAUGAGAGUUAGCCAGGAGCUUUGCAUACUCA [hsa-mir-6801] ?
-0.0024

What does the record list as pull-down binding Z-score for AGUGCAGUAUGGUGAAGUCAAUCUGUAAU [hsa-mir-590] ?
0.0335

What does the record list as pull-down binding Z-score for AAUGUCAGGGCCACCCCUGACCUU [hsa-mir-6837] ?
-0.382

What does the record list as pull-down binding Z-score for UAAACCACCCAUUAGUUUUCCAUUGUGUGCUAAUGGACAAGUUUUUGGUUUA [SHAPE_invivo_SARS-CoV-2_Motif_310] ?
-0.357

###

- Test system: TO-N3-2 (biotin conjugate)
- measurementProtocol: pull-down binding Z-score (relative to library population); higher = stronger binding
- testSettings: RNA library: Library-2
attributeMeasured: pull-down binding Z-score

What does the record list as pull-down binding Z-score for UCCUCAGUUUUACAUUCAACUCAGGA ?
-0.699

What does the record list as pull-down binding Z-score for UUGAGCAUCUUCUGGGCAGCUGA [hsa-mir-7854] ?
0.833

What does the record list as pull-down binding Z-score for CCCUUGUCUUCCCAGAG [hsa-mir-4739] ?
-0.0951

What does the record list as pull-down binding Z-score for CACCAGCCAGGCAUUGCUCAGCCCGUUUCCCUCUGGGGGAGCAAGGAGUGGUGCUGGGUUUGUC [hsa-mir-593] ?
1.24

What does the record list as pull-down binding Z-score for GCCCGCUGUGUUCACUCGGGC [hsa-mir-602] ?
-0.52

What does the record list as pull-down binding Z-score for UGCCCUGGGGCCGUCCCUGCGCA [hsa-mir-1909] ?
1.63

What does the record list as pull-down binding Z-score for CUAACAAUCUAGUUGUAAUGGCCUACAUUACAGGUGGUGUUGUUCAG [SHAPE_invivo_SARS-CoV-2_Motif_39] ?
-0.761

What does the record list as pull-down binding Z-score for UUUUCUUAAAUUGUAUAAAGAGAAAU [hsa-mir-944] ?
-0.622

What does the record list as pull-down binding Z-score for AACUGUGAUGUUGUAAUAGGAAUUGUCAACAACACAGUU ?
-1

What does the record list as pull-down binding Z-score for GCUGAGGCUUCUAAGAAGCCUCGGC ?
-1.43

What does the record list as pull-down binding Z-score for AAUUUUCUCUUGUCUAAAAGAAAAGAACG [hsa-mir-521-2] ?
-0.765

What does the record list as pull-down binding Z-score for AAAUGAGAGUUAGCCAGGAGCUUUGCAUACUCA [hsa-mir-6801] ?
0.66

What does the record list as pull-down binding Z-score for AAACUCAAACCCGUCCUUGAUUGGCUUGAAGAGAAGUUUAAGGAAGGUGUAGAGUUU ?
-0.346

What does the record list as pull-down binding Z-score for UGCAGUAUCCGCUGUUGCUGCU [hsa-mir-6132] ?
0.672

What does the record list as pull-down binding Z-score for GGAUCCCGACUGGCGAGAGCCAGGUAACGAAUGGAUCC [MG-aptamer] ?
2.4

What does the record list as pull-down binding Z-score for GAUUUGGCUACUAACAAUC [SHAPE_invitro_SARS-CoV-2_Motif_40] ?
-0.0811

What does the record list as pull-down binding Z-score for AGAACAUUCGUUCACUUUCCU [hsa-mir-6747] ?
-0.376

What does the record list as pull-down binding Z-score for CAACUGAAAUCUAUCAGGCCGGUAGCACACCUUGUAAUGGUGUUGAAGGUUUUAAUUG [SHAPE_invivo_SARS-CoV-2_Motif_433] ?
0.0571

What does the record list as pull-down binding Z-score for GACAUGUUCCUCGGAACUUGUC ?
-0.965

What does the record list as pull-down binding Z-score for GGAGAUCGUACC [hsa-mir-4430] ?
-0.15

What does the record list as pull-down binding Z-score for CUAAAUGGUACCCACUUUAUUUAG [hsa-mir-5687] ?
-0.639

What does the record list as pull-down binding Z-score for AAGCAGGGUUGGGCCUGGUU [hsa-mir-7641-1] ?
0.549

What does the record list as pull-down binding Z-score for UCGGCACUAUUGUGACUGU [hsa-mir-7855] ?
0.0889

What does the record list as pull-down binding Z-score for AUGCUAAGUCCAUGGGCAAACAU [hsa-mir-5704] ?
0.235

What does the record list as pull-down binding Z-score for ACUACUGUGCUCUGAGAAGCAGU [hsa-mir-301b] ?
0.325

What does the record list as pull-down binding Z-score for GGGACUUAUGAUUAUCCC [IAV_invivo_HA_4_Motif_18+IAV_invivo_HA_4_Motif_18] ?
-0.911

What does the record list as pull-down binding Z-score for GUAGAGGAGGCAAAGACAGUGCUUAAAAAGUGUAAAAGUGCCUUUUAC ?
0.576

What does the record list as pull-down binding Z-score for CUGGGUCCUCUGUGCAGGGUCUUACCCAG [hsa-mir-7850] ?
0.337

What does the record list as pull-down binding Z-score for GGGAGCUAUAAACAGCAGUCUCCC [IAV_invivo_HA_4_Motif_12+IAV_invivo_HA_4_Motif_12] ?
0.468

What does the record list as pull-down binding Z-score for GUUGAAGAAGUUACAAC ?
-0.168

What does the record list as pull-down binding Z-score for UGGCUGCUUGGGUCAAGUCAGCAGCCA [hsa-mir-449b] ?
-0.648

What does the record list as pull-down binding Z-score for UAACAGUUACACCGGAAGCCAAUAUGGAUCAAGAAUCCUUUGGUGGUGCAUCGUGUUG ?
-0.452

What does the record list as pull-down binding Z-score for AACAACAGCAUCAGAAGCAACAUCAGCUUUAGUU [hsa-mir-569] ?
1

What does the record list as pull-down binding Z-score for GGAGGUUGCUAGUCAGGCUAGACAAAUGGUGCAAGCGAUGAGAACCAUUGGAACUCAUCCUAGCUCCAGUGCUGGUCUGAAAAAUGAUCUUC [IAV_invivo_M1_M2_7_Motif_15+IAV_invivo_M1_M2_7_Motif_15] ?
0.839

What does the record list as pull-down binding Z-score for AGAGUCCUGUUGUUGUAAGAUAGUGUCU [hsa-mir-550a-3] ?
-0.0681

What does the record list as pull-down binding Z-score for AUCACUGAAAUAUGUCUGAGCUUCUGUU [hsa-mir-4501] ?
-0.302

What does the record list as pull-down binding Z-score for CUACAUCGUGGAAGCCAGCACCAUGCAG [hsa-mir-455] ?
0.773

What does the record list as pull-down binding Z-score for GCAGCCAGUCCUGUCUCACCGC [hsa-mir-6812] ?
1.08

What does the record list as pull-down binding Z-score for UGGGUUGAACUGUGUGGACAAGCUCA [hsa-mir-181b-1] ?
0.631

What does the record list as pull-down binding Z-score for AGUUCAGGAGGUGGCACUGCUGUGUGUGAGCU [hsa-mir-6876] ?
1.27

What does the record list as pull-down binding Z-score for CUGUUAAUGUAGCAUUUGAGCUUUGGGCUAAGCGCAACAUUAAACCAG ?
0.335

What does the record list as pull-down binding Z-score for CUCGCUGGGAGGUGUGCUAUCGUCUUCCCCGGGAG [hsa-mir-3689d-1] ?
0.734
